experimental.target: T1, recombinant antigen of the extracellular region of CD47 (Sino Biological, Cat: 12283-H08H) (human, UniProt Q08722 19-139)
T1 construct: extracellular domain; also called recombinant CD47 extracellular region; CD47 recombinant protein
T1 sequence (Q08722 19-139 limits assumed): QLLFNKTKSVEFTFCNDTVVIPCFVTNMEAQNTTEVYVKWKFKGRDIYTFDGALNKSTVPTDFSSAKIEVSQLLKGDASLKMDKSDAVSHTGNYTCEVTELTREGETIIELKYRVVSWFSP
protocol: Fortebio BLI, antibody on AHC sensor, CD47 extracellular region 100 nM;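 also: antibody held on the sensor through anti-human Fc capture, CD47 antigen in solution, association and dissociation phases each lasting 300 s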
endpoint.name: koff (s⁻¹)
Supply the numeric figure in s⁻¹, leaving out any unit text.

Any idea what koff was measured for hz140-Hm1/hz182-L (antibody, V domains shown) VH: QVQLVQSGAEVKKPGASVKVSCKASGYTFTNYVMHWVRQAPGQRLEWMGYINPYNDGIKYNEKFTGRVTITRDTSASTAYMELSSLRSEDTAVYYCAREGDFYANYGRLGFAYWGQGTLVTVSS VL: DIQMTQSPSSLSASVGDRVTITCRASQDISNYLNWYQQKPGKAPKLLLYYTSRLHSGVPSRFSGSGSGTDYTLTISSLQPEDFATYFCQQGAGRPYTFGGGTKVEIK ?
0.000542
